Listed compounds paired with reported mass density
# Condition: 343.15 K; 101.33 kPa; Liquid; Vibrating tube method
± gives the expanded uncertainty stated by the source.

Worked cases, answers included:
{"columns": ["Compound", "Endpoint name", "Data value"],
 "data": [
  ["C[C@H](N)C(=O)[O-].C[N+](C)(C)CCO [2-hydroxy-N,N,N-trimethylethanaminium L-alaninate]", "mass density", "1087.04 ± 2 kg/m3"],
  ["C[N+](C)(C)CCO.N[C@@H](CO)C(=O)[O-] [2-hydroxy-N,N,N-trimethylethanaminium L-serinate]", "mass density", "1165.5 ± 2 kg/m3"],
  ["C[N+](C)(C)CCO.O=C([O-])[C@@H]1CCCN1 [2-hydroxy-N,N,N-trimethylethanaminium L-prolinate]", "mass density", "1095.03 ± 2 kg/m3"]
]}

// query mass density value for entry C[N+](C)(C)CCO.NCCC(=O)[O-] [2-hydroxy-N,N,N-trimethylethanaminium β-alaninate]
1095.04 ± 2 kg/m3

Reported mass density for C[N+](C)(C)CCO.NCC(=O)[O-] [2-hydroxy-N,N,N-trimethylethanaminium glycinate] : what is it?
1120.22 ± 2 kg/m3

Ref: the NIST ThermoML archive (doi:10.1021/je301103d)
